target: human GPR120 (Homo sapiens, UniProt Q5NUL3); construct: host or cells: HEK293 cells co-expressing Gqi5; assay: Intracellular Ca2+ assay in human GPR120 stable cell line (FLIPR Calcium 4 dye, Flexstation); format: cell-based; conditions: HEK293, % activity at 2.5 µM compared to the maximal activity of the compound of Example 25 at 2.5 µM (=100%); HEK293 cells co-expressing Gqi5; read-out: % Activity (Ex. 25 Reference Compound)
Sequence (Q5NUL3 whole entry): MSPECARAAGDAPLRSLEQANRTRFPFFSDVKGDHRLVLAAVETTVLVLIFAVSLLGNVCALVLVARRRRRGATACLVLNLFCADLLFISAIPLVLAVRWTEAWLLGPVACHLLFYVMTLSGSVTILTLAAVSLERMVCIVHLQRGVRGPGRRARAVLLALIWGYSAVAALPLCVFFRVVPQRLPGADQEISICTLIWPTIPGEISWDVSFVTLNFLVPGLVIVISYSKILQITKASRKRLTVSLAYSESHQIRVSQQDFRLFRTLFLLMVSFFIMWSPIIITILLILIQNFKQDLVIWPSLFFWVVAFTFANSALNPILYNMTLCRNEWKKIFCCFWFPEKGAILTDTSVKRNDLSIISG
Below, each entry is listed alongside its reported activity at 2.5 µM.
Lab book: enter the figure in %, no units written.

{"compound": "CC(Cc1ccc(COc2cccc3c2OC(C)(C)C3)c(F)c1)C(=O)O (stereo not drawn) [Example 44]", "tested-target": "human GPR120 (Homo sapiens, UniProt Q5NUL3)", "units-of-measure": "%", "activity at 2.5 µM": 157}
{"compound": "Cc1cc2cc(Cl)cc(COc3ccc(CC(C)C(=O)O)cc3F)c2o1 (stereo not drawn) [Example 120]", "tested-target": "human GPR120 (Homo sapiens, UniProt Q5NUL3)", "units-of-measure": "%", "activity at 2.5 µM": 104}
{"compound": "CC1(C)Cc2cc(F)cc(COc3ccc4c(CC(=O)O)coc4c3)c2O1 [Example 262]", "tested-target": "human GPR120 (Homo sapiens, UniProt Q5NUL3)", "units-of-measure": "%", "activity at 2.5 µM": 137}
{"compound": "CC(CCc1ccc(OCc2cc(F)cc3c2OC(C)(C)C3)cc1)C(=O)O (stereo not drawn) [Example 171]", "tested-target": "human GPR120 (Homo sapiens, UniProt Q5NUL3)", "units-of-measure": "%", "activity at 2.5 µM": 99}
{"compound": "CCCc1cc(OCc2cc(Cl)cc3c2OC(C)(C)C3)c(F)cc1CCC(=O)O [Example 73]", "tested-target": "human GPR120 (Homo sapiens, UniProt Q5NUL3)", "units-of-measure": "%", "activity at 2.5 µM": 115}

So what does the record say about activity at 2.5 µM for CC(Cc1ccc(OCc2cc(F)cc3c2OC2(CCCC2)C3)cc1)C(=O)O (stereo not drawn) [Example 162] ?
154

What measured activity at 2.5 µM goes with CC1(C)Cc2cc(Cl)cc(CNc3ccc(CCC(=O)O)cc3)c2O1 [Example 127] ?
153

For the compound Cc1c(CCC(=O)O)ccc(OCc2cc(Cl)cc3c2OC(C)(C)C3)c1C [Example 209] , what activity at 2.5 µM is on record?
142

Would you mind telling me what activity at 2.5 µM value was observed for CCc1cc(OCc2cccc3c2CC(C)(C)O3)ccc1CCC(=O)O [Example 140] ?
146

###

The following compounds are shown together with reported activity at 2.5 µM values.
Biological target: human GPR120 (Homo sapiens)
Construct: host or cells: HEK293 cells co-expressing Gqi5
Assay: Intracellular Ca2+ assay in human GPR120 stable cell line (FLIPR Calcium 4 dye, Flexstation)
Format: cell-based
Details: HEK293, % activity at 2.5 µM compared to the maximal activity of the compound of Example 25 at 2.5 µM (=100%); HEK293 cells co-expressing Gqi5; read-out: % Activity (Ex. 25 Reference Compound)
Experimental: Human GPR120 stable cell line was purchased from Multispan Inc (26219 Eden Landing Road, Hayward, CA94545). This GPR120 cell line was generated in HEK293 cells co-expressing Gqi5. […] The concentration of intracellular Ca^2+ was measured as described below. […] Compounds were dissolved in 100% DMSO and diluted to desired concentrations with assay buffer and placed in the Flexstation simultaneously with the cell plate for 20 minute incubation at 37°C prior to reading. […]
Form entry: value (%) — number only.

Would you kindly share the measured activity at 2.5 µM for Cc1cc(OCc2cc(F)cc3c2OC(C)(C)C3)c(C)cc1CCC(=O)O [Example 206] ?
111

Fill in: activity at 2.5 µM of CC(C)Oc1ccc(Cl)cc1COc1cc2c(cc1F)C(CC(=O)O)CC2 (stereo not drawn) [Example 257] is ___
125

Look up activity at 2.5 µM for this compound: CCc1c(CCC(=O)O)ccc(OCc2cc(F)cc3c2OC(C)(C)C3)c1F [Example 216]
144

Using the record for CC(Cc1ccc(OCc2cc(-c3ccc(Cl)cc3)cc3c2OC(C)(C)C3)cc1)C(=O)O (stereo not drawn) [Example 82] , report its activity at 2.5 µM.
24

Quick one: activity at 2.5 µM for CC(C)Oc1cc(OCc2cc(Cl)cc3c2OC(C)(C)C3)ccc1CCC(=O)O [Example 116] ?
146

Please look up its activity at 2.5 µM: CC1(C)Cc2cc(Cl)cc(COc3ccc(C(C)(C)CC(=O)O)cc3)c2O1 [Example 156]
149
